# assay.notes: Neurotoxicity in ip dosed Mus musculus C57B/6 (mouse) assessed as inability to maintain equilibrium measured after 30 min by rotarod test
# Type: toxicity, organism-based
# run.parameters: in vivo
Recorded TD50 at 0.5 h by entry
measurement.kind: TD50 at 0.5 h (mg/kg)

smiles=CCCCCCOc1ccc(-n2cnnc2CCCC)cc1 data_value=110
smiles=CCCCCCOc1ccc(-n2cnnc2Cc2ccccc2)cc1 data_value=131
smiles=CCCCCCOc1ccc(-n2cnnc2C)cc1 data_value=114

----------
# assay.notes: Protective index, ratio of TD50 for neurotoxicity to ED50 for anticonvulsant activity in ip dosed Mus musculus C57B/6 (mouse)
# Assay type: toxicity, organism-based
# run.parameters: in vivo, read-out: Ratio TD50/ED50
Please mark y if the recorded selectivity ratio is equal to or greater than 6, and n if it falls below.

smiles=CCCCCCOc1ccc(-n2cnnc2CCc2ccccc2)cc1 discrete_label=n
smiles=CCCCCCOc1ccc(-n2cnnc2-c2ccccc2Cl)cc1 discrete_label=y
smiles=CCCCCCOc1ccc(-n2cnnc2-c2ccccc2F)cc1 discrete_label=n
smiles=CCCCCCOc1ccc(-n2cnnc2CCCC)cc1 discrete_label=y
smiles=CCCCCCOc1ccc(-n2cnnc2-c2cccc(F)c2)cc1 discrete_label=n
smiles=CCCCCCOc1ccc(-n2cnnc2-c2ccc(F)cc2)cc1 discrete_label=n
smiles=CCCCCCOc1ccc(-n2cnnc2CCC)cc1 discrete_label=y
smiles=CCCCCCOc1ccc(-n2cnnc2C)cc1 discrete_label=n
smiles=CCCCCCOc1ccc2c(c1)CCc1nncn1-2 discrete_label=n
smiles=CCCCCCOc1ccc(-n2cnnc2-c2ccc(C)cc2)cc1 discrete_label=y
smiles=CCCCCCOc1ccc(-n2cnnc2)cc1 discrete_label=y
smiles=CCCCCCOc1ccc(-n2cnnc2CCCCC)cc1 discrete_label=n
smiles=CCCCCCOc1ccc(-n2cnnc2-c2ccc(OC)cc2)cc1 discrete_label=y
smiles=CCCCCCOc1ccc(-n2cnnc2-c2ccccc2)cc1 discrete_label=y
smiles=CCCCCCOc1ccc(-n2cnnc2CC)cc1 discrete_label=n
smiles=CCCCCCOc1ccc(-n2cnnc2Cc2ccccc2)cc1 discrete_label=y
smiles=CCCCCCOc1ccc(-n2cnnc2-c2ccc(Cl)cc2)cc1 discrete_label=y

----------
# assay.notes: Neurotoxicity in ip dosed Mus musculus C57B/6 (mouse) assessed as inability to maintain equilibrium measured after 30 min by rotarod test
# Format: toxicity, organism-based
# run.parameters: in vivo
Response field label: string, one of 1 (yes) (TD50 at 0.5 h strictly below 100 mg/kg) or 0 (no).

smiles=CCCCCCOc1ccc(-n2cnnc2-c2ccc(Cl)cc2)cc1 discrete_label="0 (no)"
smiles=CCCCCCOc1ccc(-n2cnnc2-c2ccccc2Cl)cc1 discrete_label="1 (yes)"
smiles=CCCCCCOc1ccc(-n2cnnc2CCC)cc1 discrete_label="1 (yes)"
smiles=CCCCCCOc1ccc(-n2cnnc2CCCCC)cc1 discrete_label="0 (no)"
smiles=CCCCCCOc1ccc(-n2cnnc2)cc1 discrete_label="0 (no)"
smiles=CCCCCCOc1ccc(-n2cnnc2-c2ccc(OC)cc2)cc1 discrete_label="0 (no)"
smiles=CCCCCCOc1ccc(-n2cnnc2-c2cccc(F)c2)cc1 discrete_label="0 (no)"
smiles=CCCCCCOc1ccc(-n2cnnc2-c2ccccc2)cc1 discrete_label="0 (no)"
smiles=CCCCCCOc1ccc(-n2cnnc2CCc2ccccc2)cc1 discrete_label="0 (no)"
smiles=CCCCCCOc1ccc(-n2cnnc2-c2ccc(F)cc2)cc1 discrete_label="1 (yes)"

----------
# Test system: Mus musculus
# assay.notes: Anticonvulsant activity in ip dosed Mus musculus C57B/6 (mouse) assessed as protection against maximal electroshock-induced seizures
# Assay type: functional
# run.parameters: C57B/6, ip
Attribute: ED50
measurement.kind: ED50 (mg/kg)

smiles=CCCCCCOc1ccc(-n2cnnc2CCC)cc1 result_unit=mg/kg value_operator== data_value=5.7
smiles=CCCCCCOc1ccc(-n2cnnc2)cc1 result_unit=mg/kg value_operator== data_value=9.8
smiles=CCCCCCOc1ccc(-n2cnnc2Cc2ccccc2)cc1 result_unit=mg/kg value_operator== data_value=19
smiles=CCCCCCCCCc1nncn1-c1ccc(OCCCCCC)cc1 result_unit=mg/kg value_operator=> data_value=40
smiles=CCCCCCOc1ccc(-n2cnnc2-c2ccc(Cl)cc2)cc1 result_unit=mg/kg value_operator== data_value=19.7
smiles=CCCCCCOc1ccc(-n2cnnc2-c2ccc(C)cc2)cc1 result_unit=mg/kg value_operator== data_value=11.4
smiles=CCCCCCOc1ccc(-n2cnnc2-c2ccc(OC)cc2)cc1 result_unit=mg/kg value_operator== data_value=15.8
smiles=CCCCCCOc1ccc(-n2cnnc2-c2cccc(F)c2)cc1 result_unit=mg/kg value_operator== data_value=27.4
smiles=CCCCCCOc1ccc(-n2cnnc2-c2ccccc2)cc1 result_unit=mg/kg value_operator== data_value=19
smiles=CCCCCCOc1ccc(-n2cnnc2CCCC)cc1 result_unit=mg/kg value_operator== data_value=13.6
smiles=CCCCCCOc1ccc(-n2cnnc2-c2ccccc2Cl)cc1 result_unit=mg/kg value_operator== data_value=13.2
smiles=CCCCCCOc1ccc(-n2cnnc2CCc2ccccc2)cc1 result_unit=mg/kg value_operator== data_value=27.4
smiles=CCCCCCOc1ccc(-n2cnnc2C)cc1 result_unit=mg/kg value_operator== data_value=22.8
smiles=CCCCCCOc1ccc(-n2cnnc2-c2ccccc2F)cc1 result_unit=mg/kg value_operator== data_value=20.2
smiles=CCCCCCOc1ccc(-n2cnnc2CCCCCC)cc1 result_unit=mg/kg value_operator=> data_value=40
smiles=CCCCCCOc1ccc(-n2cnnc2-c2ccc(F)cc2)cc1 result_unit=mg/kg value_operator== data_value=22
smiles=CCCCCCCc1nncn1-c1ccc(OCCCCCC)cc1 result_unit=mg/kg value_operator=> data_value=40
smiles=CCCCCCOc1ccc(-n2cnnc2CCCCC)cc1 result_unit=mg/kg value_operator== data_value=32.8

Just for reference, ChEMBL document CHEMBL3046250 is where these values come from.
